molecular target: human Cereblon WT GST-tagged protein (Homo sapiens, UniProt Q96SW2); construct: purchased CISBIO 64BDCRBNPEH; assay: CRBN binding, HTRF (CEREBLON BINDING kit); settings: Table II-2, CRBN binding screening, HTRF; at 0.5µM; read-out: Inhibition rate (%) at 0.5µM
Sequence (Q96SW2 whole entry): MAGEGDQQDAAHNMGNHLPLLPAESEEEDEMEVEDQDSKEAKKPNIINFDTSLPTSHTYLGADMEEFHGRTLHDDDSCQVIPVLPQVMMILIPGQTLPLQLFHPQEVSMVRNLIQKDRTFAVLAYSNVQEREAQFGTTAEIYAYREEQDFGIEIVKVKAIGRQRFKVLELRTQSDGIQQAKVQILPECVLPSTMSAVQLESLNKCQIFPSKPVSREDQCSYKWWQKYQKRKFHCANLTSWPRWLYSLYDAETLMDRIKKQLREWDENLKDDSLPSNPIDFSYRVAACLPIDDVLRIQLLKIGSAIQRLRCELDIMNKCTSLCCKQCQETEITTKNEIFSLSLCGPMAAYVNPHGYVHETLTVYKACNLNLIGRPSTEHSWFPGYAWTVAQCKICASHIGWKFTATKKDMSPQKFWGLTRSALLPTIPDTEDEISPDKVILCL
measured.quantity: inhibition at 0.5 µM

Some entries whose results are on file:
INSERT INTO measurements (compound, result) VALUES
  ('CC(C)(O)c1cc2nc(C3CCN(Cc4ccc(C5CCC(=O)NC5=O)cn4)CC3)oc2cc1NC(=O)c1cccc(C(F)(F)F)n1 (stereo not drawn)', '40 to 53%'),
  ('C[C@@H]1CNC(=O)c2cc3ccc(C(=O)Nc4cnn(Cc5ccc(N6CCC(N(C)Cc7cc(C8CCC(=O)NC8=O)cnc7F)CC6)cc5)c4)nc3n21 (stereo partly drawn)', '30 to 40%'),
  ('O=C1CCC(c2ccc(CN3CCC(n4cc(NC(=O)c5cnn6ccc(N7C[C@H]8C[C@@H]7CO8)nc56)c(C(F)F)n4)CC3)nc2)C(=O)N1 (stereo partly drawn)', '53 to 60%'),
  ('CN(c1nccnc1CNc1nc(Nc2ccc(N3CCN(Cc4ccc(N5CCC(=O)NC5=O)cn4)CC3)cc2)ncc1C(F)(F)F)S(C)(=O)=O', '30 to 40%'),
  ('CNC(=O)c1ccccc1Nc1cc(Nc2cc(C)c(N3CCC(N(C)Cc4ccc(C5CCC(=O)NC5=O)cc4)CC3)cc2OC(C)C)ncc1C(F)(F)F (stereo not drawn)', '10 to 20%');

Would you kindly look at the next entry?
Lookup result for CC(C)(O)c1cc2nc(C3CCN(Cc4cc(N5CCC(=O)NC5=O)ncc4F)CC3)oc2cc1NC(=O)c1cccc(C(F)(F)F)n1 ; measured inhibition at 0.5 µM: 20 to 30%

###

system: CCRF-CEM; assay: CCK-8 proliferation, CCRF-CEM; format: cell-based, Human; conditions: Homo sapiens, CCRF-CEM; CCK-8; 96 hours; read-out: Inhibitory activity (IC50) on tumor cell proliferation, CCRF-CEM
pIC50: −log10 of the molar value.
measured.quantity: pIC50

List reported pIC50 for each of these compounds:
1. CC1(C)CCC(c2ccc(Cl)cc2)=C(CN2CCN(c3ccc(C(=O)NS(=O)(=O)c4ccc(N[C@H](CCN5CCOCC5)CSc5ccccc5)c(S(=O)(=O)C(F)(F)F)c4)cc3)CC2)C1 [ABT-263, Navitoclax, reference compound]
2. Cc1nc2c(F)cc(-c3nc(Nc4ccc(N5CCC(N(C)Cc6ccc(C7CCC(=O)NC7=O)cc6)CC5)cn4)ncc3F)cc2n1C(C)C (stereo not shown)
3. Cc1ccc(-c2c(C)noc2C)cc1N(CC1CCN(Cc2ccc(C3CCC(=O)NC3=O)cc2)CC1)c1ccc(C2(C#N)CC2)cc1 (stereo not shown)
4. COc1cc(C(=O)NC2CCN(Cc3cccc(N4CCC(=O)NC4=O)c3)CC2)c(F)cc1Nc1ncc(C(F)(F)F)c(Oc2cccc3c2C(=O)N(C)C3)n1

1: 6.30 to 7.00; 2: 6.30 to 7.00; 3: 6.00 to 6.30; 4: 6.30 to 7.00

###

biological target: human Cereblon WT GST-tagged protein (Homo sapiens, UniProt Q96SW2); construct: purchased CISBIO 64BDCRBNPEH; assay: CRBN binding, HTRF (CEREBLON BINDING kit); conditions: Table II-2, CRBN binding screening, HTRF; at 2 µM; read-out: Inhibition rate (%) at 2 µM
measured.quantity: inhibition at 2 µM

Some entries whose results are on file:
INSERT INTO assay_data (molecule, subject_of_test, measured_quantity, result) VALUES
  ('CCc1cc2c(cc1N1CCC(N3CCN(Cc4ccc(C5CCC(=O)NC5=O)c(F)c4)CC3)CC1)C(C)(C)c1[nH]c3cc(C#N)ccc3c1C2=O (centres unmarked)', 'human Cereblon WT GST-tagged protein (Homo sapiens, UniProt Q96SW2)', 'inhibition at 2 µM', '53 to 60%'),
  ('Cc1ccc(C(=O)Nc2ccc(N3CCC(N(C)Cc4ccc(C5CCC(=O)NC5=O)c(F)c4)CC3)c(C(F)(F)F)c2)cc1C#Cc1cnc2cccnn12 (centres unmarked)', 'human Cereblon WT GST-tagged protein (Homo sapiens, UniProt Q96SW2)', 'inhibition at 2 µM', '80 to 100%'),
  ('COc1cc2nn(C3CCN(Cc4cncc(C5CCC(=O)NC5=O)c4)CC3)cc2cc1NC(=O)c1cccc(C(F)(F)F)n1 (centres unmarked)', 'human Cereblon WT GST-tagged protein (Homo sapiens, UniProt Q96SW2)', 'inhibition at 2 µM', '53 to 60%'),
  ('CC1(C)CCC(c2ccc(Cl)cc2)=C(CN2CCN(c3ccc(C(=O)NS(=O)(=O)c4ccc(N[C@H](CCN5CC6CCC5CN6Cc5cccc(NC6CCC(=O)NC6=O)c5)CSc5ccccc5)c(S(=O)(=O)C(F)(F)F)c4)cc3)CC2)C1 (some centres unmarked)', 'human Cereblon WT GST-tagged protein (Homo sapiens, UniProt Q96SW2)', 'inhibition at 2 µM', '30 to 40%');

Would you kindly look at the next entry?
Lookup result for Cn1cc(-c2cc(S(C)(=O)=O)ccc2OCc2ccc(N3CCC(=O)NC3=O)c(F)c2)c2cc[nH]c2c1=O ; measured inhibition at 2 µM: 60 to 80%
